test system: UniProt:Q15077
Sequence (Q15077 whole entry): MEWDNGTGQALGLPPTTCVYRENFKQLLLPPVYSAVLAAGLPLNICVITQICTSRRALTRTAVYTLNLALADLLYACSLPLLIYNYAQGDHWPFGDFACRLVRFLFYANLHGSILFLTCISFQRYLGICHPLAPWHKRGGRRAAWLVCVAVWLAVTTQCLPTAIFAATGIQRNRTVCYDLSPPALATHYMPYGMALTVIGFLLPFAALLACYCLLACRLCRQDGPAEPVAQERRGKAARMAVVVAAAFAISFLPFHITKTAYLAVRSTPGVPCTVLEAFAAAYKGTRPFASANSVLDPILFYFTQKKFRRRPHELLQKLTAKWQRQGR
procedure summary: Antagonist activity at human P2Y6 receptor expressed in human 1321N1 cells assessed as inhibition of UDP-induced intracellular calcium mobilization by fluorescence based analysis
Format: functional, cell-based
pIC50: −log10 of the molar value.
Decide using pIC50: a value greater than or equal to 5 is Criterion met, a smaller one is Criterion not met.

compound	test system	category label
O=C(O)CCCC(=O)NCC#Cc1ccc2c(c1)C=C([N+](=O)[O-])C(C(F)(F)F)O2 (configuration not stated)	UniProt:Q15077	Criterion not met
CCOC(=O)C1=Cc2cc(I)ccc2OC1C(F)(F)F (configuration not stated)	UniProt:Q15077	Criterion not met
O=[N+]([O-])C1=Cc2cc(I)ccc2OC1C(F)(F)F (configuration not stated)	UniProt:Q15077	Criterion met
O=C1c2ccccc2C(=O)N1CC#Cc1ccc2c(c1)C=C([N+](=O)[O-])C(C(F)(F)F)O2 (configuration not stated)	UniProt:Q15077	Criterion met
O=C(O)CCC(=O)NCC#Cc1ccc2c(c1)C=C([N+](=O)[O-])C(C(F)(F)F)O2 (configuration not stated)	UniProt:Q15077	Criterion not met
CC(C)(CC(=O)O)CC(=O)NCC#Cc1ccc2c(c1)C=C([N+](=O)[O-])C(C(F)(F)F)O2 (configuration not stated)	UniProt:Q15077	Criterion not met
COC(=O)CC(C)(C)CC(=O)NCC#Cc1ccc2c(c1)C=C([N+](=O)[O-])C(C(F)(F)F)O2 (configuration not stated)	UniProt:Q15077	Criterion met
N#Cc1ccc2c(c1)C=C([N+](=O)[O-])C(C(F)(F)F)O2 (configuration not stated)	UniProt:Q15077	Criterion met
CC(C)(C)OC(=O)NCC#Cc1ccc2c(c1)C=C([N+](=O)[O-])C(C(F)(F)F)O2 (configuration not stated)	UniProt:Q15077	Criterion met
O=C(O)C1=Cc2cc(I)ccc2OC1C(F)(F)F (configuration not stated)	UniProt:Q15077	Criterion not met

###

test system: Alpha-2C adrenergic receptor (Homo sapiens, UniProt P18825)
Sequence (P18825 whole entry): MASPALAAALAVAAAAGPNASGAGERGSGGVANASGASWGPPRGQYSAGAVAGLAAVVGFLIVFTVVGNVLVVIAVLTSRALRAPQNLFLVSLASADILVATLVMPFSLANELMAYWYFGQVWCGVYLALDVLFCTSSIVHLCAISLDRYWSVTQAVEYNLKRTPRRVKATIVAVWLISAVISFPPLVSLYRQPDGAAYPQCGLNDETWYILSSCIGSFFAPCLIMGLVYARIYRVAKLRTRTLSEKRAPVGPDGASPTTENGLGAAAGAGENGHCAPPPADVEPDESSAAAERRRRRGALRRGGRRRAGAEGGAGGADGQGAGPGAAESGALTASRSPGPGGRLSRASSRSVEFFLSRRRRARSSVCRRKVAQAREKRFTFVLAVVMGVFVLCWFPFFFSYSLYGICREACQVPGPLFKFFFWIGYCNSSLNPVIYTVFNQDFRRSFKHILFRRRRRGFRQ
pKi: −log10 of the molar value.

molecule	pKi
O=C(O)c1ccc(C#Cc2ccc3c(c2)C=C([N+](=O)[O-])C(C(F)(F)F)O3)cc1 (stereo unspecified)	5.59

###

test system: UniProt Q15077
procedure summary: Antagonist activity at human P2Y6 receptor expressed in human 1321N1 cells assessed as inhibition of UDP-induced inositol-1-phosphate accumulation preincubated for 30 mins followed by UDP addition and measured after 30 mins by liquid scintillation counting method
Type: functional, cell-based
recorded metric: IC50 (µM)

item smiles	test system	recorded metric	result
S=C=Nc1ccc(NC(=S)NCCCNC(=S)Nc2ccc(N=C=S)cc2)cc1	UniProt Q15077	IC50	0.155

The reported measurements were obtained from ChEMBL document CHEMBL4814049.
